Where do these numbers come from? They come from PubChem BioAssay (NCI).

- System: HOP-62 NSCLC
- ASSAY PROCEDURE: NCI-60 one-dose screen, 48 h (100 = growth as untreated, 0 = no growth, -100 = all killed)
- SETUP CONDITIONS: 10 µM unless noted
Compounds without any hit were thinned out: in the full panel of roughly 83,000, 20% have a hit.
// class assignment uses growth with these ranges: low bin = under 40%, mid bin = from 40% up to 80%, high bin = 80% and over

Ask | Place this molecule in its band: Cc1cc(N2CCCCC2)cc(C)c1-c1csc(NC(=O)c2ccncc2)n1
Reply | mid bin

Ask | Place this molecule in its band: O=S(=O)(NCCCNc1nccc(-c2c(-c3ccc(F)c(O)c3)nc3sccn23)n1)c1ccccc1
Reply | high bin

Ask | Place this molecule in its band: COc1ccc(C2=Nc3c(N)nc(N)nc3NC(c3cccc(Nc4ccnc5cc(C(F)(F)F)ccc45)c3)C2)cc1 (configuration not stated)
Reply | mid bin

Ask | Place this molecule in its band: O=C1/C(=C/c2ccccc2Br)COc2ccc(O)cc21
Reply | high bin

Ask | Place this molecule in its band: Cc1[nH]c(=O)[nH]c(=O)c1Br
Reply | high bin

Ask | Place this molecule in its band: CCCCn1c(=O)[nH]c(N)c([C@@H]2c3c([nH]c(=O)n(CCCC)c3=O)Oc3ccc4ccccc4c32)c1=O
Reply | mid bin

Ask | Place this molecule in its band: CCCCCCCCCCCCCCCCCCOc1ccccc1CC(=O)OCC[N+](C)(C)C
Reply | low bin

Ask | Place this molecule in its band: O=C(Nc1nc2cc(C(=O)N3CCN(C(c4ccccc4)c4ccccc4)CC3)ccc2o1)c1ccc(NC2CCCCC2)c([N+](=O)[O-])c1
Reply | mid bin

Ask | Place this molecule in its band: c1ccc([P+](c2ccccc2)(c2ccccc2)c2ccc3c4ccc([P+](c5ccccc5)(c5ccccc5)c5ccccc5)c5cccc(c6cccc2c63)c54)cc1
Reply | low bin

Ask | Place this molecule in its band: C/C(Cc1ccc(Cl)cc1)=C(\c1ccc(O)cc1)c1ccc(Cl)cc1
Reply | high bin

Ask | Place this molecule in its band: COc1ccc(C(=O)Nc2cccc(-c3cc(=O)c4c(OC)c(OC)c(OC)cc4o3)c2)cc1
Reply | mid bin

Ask | Place this molecule in its band: Cn1ccnc1C(=O)/C=C/c1ccc(C(=O)Nc2ccc(Cl)cc2)cc1
Reply | low bin

Ask | Place this molecule in its band: N#Cc1c(-c2ccccc2)cc(-c2ccc(Nc3nc(Nc4ccc(Cl)cc4)nc(Nc4ccc(Cl)cc4)n3)cc2)nc1N
Reply | high bin

Ask | Place this molecule in its band: O=C(/C=C/c1ccccc1)Nc1ncc(Cc2ccccc2Cl)s1
Reply | low bin

Ask | Place this molecule in its band: COC(=O)[C@@H](CCCCNC(=O)[C@]12CCC(C)(C)C[C@@H]1C1=CC[C@@H]3[C@@]4(C)C/C(=C/c5ccco5)C(=O)C(C)(C)[C@@H]4CC[C@@]3(C)[C@]1(C)CC2)NC(=O)[C@]12CCC(C)(C)C[C@@H]1C1=CC[C@@H]3[C@@]4(C)C/C(=C/c5ccco5)C(=O)C(C)(C)[C@@H]4CC[C@@]3(C)[C@]1(C)CC2
Reply | high bin

Ask | Place this molecule in its band: CCCCNCCCCCNc1cc(OC)cc2cccnc12
Reply | high bin

Ask | Place this molecule in its band: COc1ccc(Nc2ncc(Br)c(NCCCNC(=O)C3CCCC3)n2)cc1
Reply | low bin

Ask | Place this molecule in its band: CN1CCN(c2cc(Nc3cc(C4CC4)[nH]n3)nc(Nc3ccc(CC(=O)NCc4cccc(F)c4)cc3)n2)CC1
Reply | low bin

Ask | Place this molecule in its band: CCOC(=O)c1ccc(NC(=O)c2nc(-c3cc(OC)c(OC)c(OC)c3)n(-c3ccc(Cl)cc3)n2)cc1
Reply | high bin

Ask | Place this molecule in its band: O=C1NC(=O)C(Cc2ccc(OCc3ccc(-c4ccc(Cl)cc4Cl)cc3)cc2)S1 (configuration not stated)
Reply | mid bin

Ask | Place this molecule in its band: Cn1cc(-c2csc(-c3c[nH]c4ccccc34)n2)c2cnccc21
Reply | low bin

Ask | Place this molecule in its band: CCN(CC)CCn1c2ccc(OC)cc2c2sc3cc(OC)ccc3c(=O)c21
Reply | low bin

Ask | Place this molecule in its band: CSc1nnc(-c2cc3c([nH]c4ccccc43)c(-c3cccc(O)c3)n2)n1-c1ccccc1
Reply | mid bin

Ask | Place this molecule in its band: CCOC(=O)c1c(NC(=O)c2ccc(Cl)cc2)sc2c(CN(C)C)c(O)ccc12
Reply | high bin

---

- System: COLO 205 colon
- ASSAY PROCEDURE: NCI-60 one-dose screen, 48 h (100 = growth as untreated, 0 = no growth, -100 = all killed)
- SETUP CONDITIONS: 10 µM unless noted
Compounds without any hit were thinned out: in the full panel of roughly 83,000, 20% have a hit.
For each entry below, report its growth value.
Only the number, expressed in %, is required.

Ask | Report growth for O=C(Nc1ccc(Oc2cccc(Cl)c2)c(Cl)c1)c1cnccn1
Reply | 12.3

Ask | Report growth for Cc1cc(S(=O)(=O)/N=C(\N)n2nc(C)c(C)c2C)c(SCc2ccccc2)cc1Cl
Reply | 114

Ask | Report growth for CCCCNC(=O)Oc1ccc(/C(=C(/C)Cc2ccc(OC)cc2)c2ccc(OCCN(CC)CC)cc2)cc1
Reply | 46.8

Ask | Report growth for NC(=O)c1cccc(-n2ccc3cc(NC(=O)c4ccc(N5CCOCC5)c(C(F)(F)F)c4)ccc32)n1
Reply | 34.4

Ask | Report growth for CCOc1ccc(NC(=O)CSc2oc(-c3ccccc3)nc2S(=O)(=O)c2ccc(C)cc2)cc1
Reply | 81.8

Ask | Report growth for Clc1cccc(Nc2ncnc3ccc(-c4cnc5[nH]ccc5c4)cc23)c1
Reply | 83.4

Ask | Report growth for CN1CCN(C(=O)c2ccc(NC(=O)c3cc4c(nn3)NCCN4Cc3cc(Cl)ccc3Cl)cc2)CC1
Reply | 71.1

Ask | Report growth for Fc1cc2c(cc1Cl)N(c1ncnc3ccc(-c4ccc5n[nH]nc5c4)cc13)CC2
Reply | 109

---

- Tested on: NCI-H460 lung
- ASSAY PROCEDURE: NCI-60 one-dose screen, 48 h
- SETUP CONDITIONS: 10 µM unless noted
Compounds without any hit were thinned out: in the full panel of roughly 83,000, 20% have a hit. Active and inactive are the calls of the source. The calls were made as follows: active = growth percent below 10; inactive = the rest.
Classes to choose from: 1.0 for active, 0.0 for inactive

Ask | Just curious, what result did COc1ccc(/C=C(\C#N)n2nnc3ccc(Cl)cc32)cc1 get here?
Reply | 0.0

Ask | Just curious, what result did NC(=O)c1ccc(-c2c3ccccc3cc3c2ccc2ccccc23)cc1 get here?
Reply | 0.0

Ask | Just curious, what result did CCN(CC)CCn1c2ccc(OC)cc2c2sc3cc(OC)ccc3c(=O)c21 get here?
Reply | 1.0

Ask | Just curious, what result did CCOC(=O)c1cc(C(=O)c2cc(OC)c(OC)c(OC)c2)n2ncccc12 get here?
Reply | 0.0

---

For each entry below, report its growth value.
- System: SK-MEL-5 melanoma
- ASSAY PROCEDURE: NCI-60 one-dose screen, 48 h (100 = growth as untreated, 0 = no growth, -100 = all killed)
- SETUP CONDITIONS: 10 µM unless noted
This is part of a sample that, as a whole, favours compounds with a hit. Of some 83,000 tested, about 20% had one in any assay.
Only the number, expressed in %, is required.

Ask | Report growth for CCOC(=O)C(=O)C(C(=O)OCC)c1ccccc1 (stereo not given)
Reply | 106

Ask | Report growth for Cn1c(=O)c2nc(/C=C/c3ccccc3)c(=O)[nH]c2n(C)c1=S
Reply | 102

Ask | Report growth for Ic1ccc(OCCCCn2ccnc2)cc1
Reply | 79.6

Ask | Report growth for CSc1oc(C)nc1[P+](c1ccccc1)(c1ccccc1)c1ccccc1
Reply | -9.07

Ask | Report growth for CN(C)CCNC(=O)c1cc2c3cc(Cl)ccc3[nH]c2c2ncccc12
Reply | -38.8

Ask | Report growth for NC(=O)CSc1oc(-c2ccccc2)nc1S(=O)(=O)c1ccc(Br)cc1
Reply | 55.7

Ask | Report growth for CC(C)C1=NOC(=O)C1=Cc1cn(-c2ccccc2)nc1-c1ccc(F)cc1
Reply | 78.9

Ask | Report growth for CN(C)CCNC(=O)c1ccc(-c2nc3ccc4[nH]ncc4c3c3c2C2CCC3C2)cc1 (stereo not given)
Reply | 16.4

Ask | Report growth for CCN(CC)CC(O)COc1c(Br)c(Br)c(Br)c2c1OC(C)(C)C2 (stereo not given)
Reply | -78.9

Ask | Report growth for CC(O)(c1ccccc1)C(c1ccccc1)C1CCCCN1 (stereo not given)
Reply | 103

---

- Test system: ACHN renal
- ASSAY PROCEDURE: NCI-60 one-dose screen, 48 h (100 = growth as untreated, 0 = no growth, -100 = all killed)
- SETUP CONDITIONS: 10 µM unless noted
Compounds without any hit were thinned out: in the full panel of roughly 83,000, 20% have a hit.
For each entry below, report its growth value.
Only the number, expressed in %, is required.

Ask | Report growth for COc1ccc(/C=C/C(=O)c2cccc(OCCCCOc3cccc(C(=O)/C=C/c4ccc(OC)c(OC)c4)c3)c2)cc1OC
Reply | 77.8

Ask | Report growth for N#CC1=C(N)Oc2c(c(=O)[nH]c3ccc(Cl)cc23)C12C(=O)c1ccccc1C2=O
Reply | 95.1

Ask | Report growth for O=C(Nc1ccc(Oc2cccc(Cl)c2)c(Cl)c1)c1cnccn1
Reply | 40
